Parameter IC50 at 5 days: see the listing below.
# assay-protocol: Antiproliferative activity against mouse L929 cells assessed as inhibition of cell growth incubated for 5 days by MTT assay
# Format: toxicity, cell-based
measured-endpoint: IC50 at 5 days (nM)

| mol | measured-value |
| --- | --- |
| C=C(C)[C@H]1Cc2c(ccc3c2O[C@@H]2COc4cc(OC)c(OC)cc4[C@@H]2C3=O)O1 | 16.1 |
| Cc1cc(OCc2nnc(SC3CCCC3)n2-c2cccnc2)ccc1-c1ccc(S(C)(=O)=O)cc1 | 1.3 |

----------
# Test system: HCT-116
# assay-protocol: Antiproliferative activity against human HCT-116 cells assessed as reduction in cell viability
# Type: functional, cell-based

| mol | IC50 / nM |
| --- | --- |
| Cc1cc(OCc2nnc(SC3CCCC3)n2-c2cccnc2)ccc1-c1ccc(S(C)(=O)=O)cc1 | 450 |

----------
# assay-protocol: Inhibition of NADH-ubiquinone oxidoreductase (unknown origin) binding to ETC complex 1
# Set-up: species or system Homo sapiens
pKi: −log10 of the molar value.
measured-endpoint: pKi

| mol | measured-endpoint | measured-value |
| --- | --- | --- |
| Cc1ccc(Sc2cccc3[nH]c4nc(N)nc(N)c4c23)cc1 | pKi | 6.08 |

----------
# assay-protocol: Half life in BALB/c mouse plasma at 100 mg/kg, ip
# Format: ADME, organism-based

| mol | half-life (h) |
| --- | --- |
| CCCCc1ccc(N)c(C)c1 | 1.1 |

----------
# assay-protocol: Half life in tumor of BALB/c mouse model xenografted with 4T1 cells at 100 mg/kg, ip measured after 4 hrs
# Assay type: ADME, organism-based

| mol | half-life |
| --- | --- |
| CCCCc1ccc(N)c(C)c1 | 1.2 h |

----------
# Tested on: NCI-H460
# assay-protocol: Antiproliferative activity against human NCI-H460 cells assessed as reduction in cell viability incubated for 48 hrs by cell titer glow assay
# Format: functional, cell-based
# setup-conditions: NCI-H460, 48 h
measured-endpoint: EC50 (nM)

| mol | measured-value |
| --- | --- |
| Cc1cc(-c2nc(-c3ccc(OC(F)(F)F)cc3)no2)nn1Cc1ccnc(N2CCN(C3CC3)CC2)c1 | 3 |

----------
# Tested on: Melanoma cell line
# assay-protocol: Antiproliferative activity against human melanoma cells assessed as reduction in cell viability incubated for 72 hrs by CellTiter-Fluor reagent based fluorescence analysis
# Format: functional
measured-endpoint: IC50 (nM)

| mol | measured-value |
| --- | --- |
| Cc1cc(-c2nc(-c3ccc(OC(F)(F)F)cc3)no2)nn1Cc1ccnc(N2CCN(C3CC3)CC2)c1 | 2 |

----------
# assay-protocol: Cytotoxicity against Trichoplusia ni BTI-TN-5B1-4 cells assessed as reduction cell proliferation incubated for 24 hrs by MTT assay
# Format: toxicity, cell-based

| mol | IC50 at 24 h, nM |
| --- | --- |
| C/C=C(\C)[C@H](O)[C@H](C)/C=C(C)/C=C/C/C(C)=C/Cc1nc(OC)c(OC)c(O)c1C | 61 |
